Target: T1, rat CD47 (rat, UniProt P97829 19-303)
T1 construct: whole, on cells; also called CD47 on rat RBCs
T1 sequence (looked up): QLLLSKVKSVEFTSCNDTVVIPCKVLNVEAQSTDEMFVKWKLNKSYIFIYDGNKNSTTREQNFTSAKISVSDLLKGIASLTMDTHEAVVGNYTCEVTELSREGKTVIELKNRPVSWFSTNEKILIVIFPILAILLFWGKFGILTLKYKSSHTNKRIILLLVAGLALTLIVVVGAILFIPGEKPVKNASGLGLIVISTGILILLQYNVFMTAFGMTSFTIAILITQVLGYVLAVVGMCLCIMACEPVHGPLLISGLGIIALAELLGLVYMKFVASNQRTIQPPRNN
Assay: FACS, rat RBCs, supernatant 10 ng/ml
The entries below are paired with their reported mean fluorescence relative to chimera.
# print the numeric value only

Examples from the recorded data:
Clone 18 (pVxK7b-037-hum18-LC / pVxK7b-037-hum18-HC) (antibody, human IgG1, kappa, V domains shown) VH: EVQLVQSGAEVKKPGESLRISCKGSGYTFTNYYVFWIRQSPSRGLEWLGDINPVNGDTNFNEKFKNRVTITADKSTSTAYMELSSLRSEDTAVYYCARGGYTMDYWGQGTLVTVSS VL: EIVLTQSPATLSVSPGERATLSCRSSQSLVHSNGNTYLHWYQQKPGQAPRLLIYKVSYRFSGVPSRFSGSGSGTDFTFTISSLEAEDAATYYCSQNTHVPRTFGQGTKVEIKR; 2.2
Clone 2 (pVxK7b-037-hum02-LC / pVxK7b-037-hum02-HC) (antibody, human IgG1, kappa, V domains shown) VH: QVQLQESGPGLVKPSQTLSLTCTVSGYTFTNYYVFWVRQARGQRLEWIGDINPVNGDTNFNEKFKNRVTISADKSISTAYLQWSSLKASDTAMYYCARGGYTMDYWGQGTLVTVSS VL: DVVMTQSPLSLPVTLGQPASISCRSSQSLVHSNGNTYLHWYQQKPGQAPRLLIYKVSYRFSGVPSRFSGSGSGTEFTLTISSLQPDDFATYYCSQNTHVPRTFGQGTKVEIKR; 2.6

Query: Which mean fluorescence relative to chimera is listed for Clone 12 (pVxK7b-037-hum12-LC / pVxK7b-037-hum12-HC) (antibody, human IgG1, kappa, V domains shown) VH: QVQLQESGPGLVKPGATVKISCKVSGYTFTNYYVFWVRQARGQRLEWIGDINPVNGDTNFNEKFKNRVTITADKSTSTAYMELSSLRSEDTAVYYCARGGYTMDYWGQGTLVTVSS VL: DIVMTQTPLSLPVTPGEPASISCRSSQSLVHSNGNTYLHWYQQKPGKAPKLLIYKVSYRFSGVPDRFSGSGSGTDFTLKISRVEAEDVGVYYCSQNTHVPRTFGQGTKVEIKR ?
Response: 1.3
